Measured IC50 of individual entries
PROCEDURE SUMMARY: Anticancer activity against human DU145 cells assessed as inhibition of cell growth after 24 hrs by MTT assay
Type: functional, cell-based
CONDITION: DU-145, 24 h

- N=C(N)SCc1ccc([N+](=O)[O-])o1: > 50 µM
- N=C(N)[Se]Cc1ccc([N+](=O)[O-])o1: > 50 µM
- Cc1noc(C)c1CSC(=N)N: > 50 µM

Field: next molecule
Query: Which value of IC50 has been reported for `N=C(N)[Se]Cc1ccc2c(c1)C(=O)c1ccccc1C2=O` in the records?
Response: 21.4 µM

###

PROCEDURE SUMMARY: Anticancer activity against human BxPC3 cells assessed as inhibition of cell growth after 24 hrs by MTT assay
Format: functional, cell-based
CONDITION: BXPC-3, 24 h
Let's look at some compounds and their measured IC50.

Some entries whose results are on file:
• Cc1noc(C)c1C[Se]C(=N)N = > 50 µM
• N=C(N)SCc1cc2c(cc1Br)OCO2 = > 50 µM
• N=C(N)SCc1nc2ccccc2nc1CSC(=N)N = > 50 µM
• N=C(N)SCc1ccc(-n2cccc2)cc1 = > 50 µM

Query: Give its IC50 value. Item: `N=C(N)[Se]Cc1cc2c(cc1Br)OCO2`
Response: > 50 µM

Query: Value lookup for IC50; key = `N=C(N)[Se]Cc1c2ccccc2nc2ccccc12`
Response: 20.4 µM

Query: What measured IC50 goes with `N=C(N)SCN1C(=O)c2ccccc2C1=O` ?
Response: > 50 µM

Query: Fill blank: measured IC50 of the compound `N=C(N)[Se]Cc1ccc2ccccc2n1` is ____.
Response: 36.6 µM

Query: Please report the recorded IC50 for `N=C(N)SCc1ccc([N+](=O)[O-])o1` .
Response: > 50 µM

Query: Report IC50 for `N=C(N)SCc1ccc2ccccc2n1` please.
Response: > 50 µM

Query: Consider the compound `N=C(N)[Se]Cc1ccc([N+](=O)[O-])o1` and give its measured IC50.
Response: 42.9 µM

Query: Quick one: IC50 for `N=C(N)SCc1ccc2c(c1)C(=O)c1ccccc1C2=O` ?
Response: 4.1 µM

Query: Entry under review: `COc1cc2oc(=O)cc(CSC(=N)N)c2cc1OC` . Reported IC50?
Response: > 50 µM

Query: What does the record list as IC50 for `Br.Br.N=C(N)[Se]Cc1nc2ccccc2nc1C[Se]C(=N)N` ?
Response: 3.6 µM

Numbers sourced from ChEMBL document CHEMBL3779798.
